# System: metastin receptors
# Test: Measurement of agonist activity by assaying changes in intracellular calcium ion level (FLIPR, Fluo-4 NW)
# Type: cell-based, human
# Condition: specific activity of the EC50 of a test compound based on the EC50 of Metastin (45-54), metastin receptor expression CHO cells
*1 amine or outer side, *2 acyl side, *3 side chain or, on linkers, in order; H or OH if unused. Where a SMILES comes first, the peptide text is derived from it. [ ]: non-standard residue; d: D form. Hexanoyl(5S-NH,4S-OH,6-Ph) = O=C(CC[C@H](O)[C@H](Cc1ccccc1)N[*:1])[*:2]; Glyψ(CH2S)Leu = CC(C)C[C@H](SCCN[*:1])C(=O)[*:2]; X9 = O=C(CCC[C@H](Cc1ccccc1)N[*:1])[*:2]; X1 = CC(C)C[C@H](CCCN[*:1])C(=O)[*:2]; Arg(Me) = CNC(=N)NCCC[C@H](N)C(=O)O; Dap(CONH2) = NC(=O)NC[C@H](N)C(=O)O; Ala(cPr) = N[C@@H](CC1CC1)C(=O)O; Hyp = O=C(O)[C@@H]1C[C@@H](O)CN1; tBuAla = CC(C)(C)C[C@H](N)C(=O)O; 3Pal = N[C@@H](Cc1cccnc1)C(=O)O; Cha = N[C@@H](CC1CCCCC1)C(=O)O; Nva = CCC[C@H](N)C(=O)O; Dap = NC[C@H](N)C(=O)O
// reported Specific Activity for each item listed
No unit in the answer, please; the number alone is enough.

Consider the following illustrative entries.
Compound	Specific Activity
CNC(=N)NCCC[C@H](NC(=O)[C@H](CC1CC1)NC(=O)CNC(=O)[C@H](CC1CCCCC1)NC(=O)[C@H](CN)NC(=O)[C@H](CNC(N)=O)NC(=O)[C@@H]1C[C@@H](O)CN1C(=O)[C@@H](Cc1ccc(O)cc1)NC(C)=O)C(=O)N[C@@H](Cc1c[nH]c2ccccc12)C(N)=O [Compound No. 951] (Ac-[dY][Hyp][Dap(CONH2)][Dap][Cha]G[Ala(cPr)][Arg(Me)]W-NH2)	0.7
CNC(=N)NCCC[C@H](NC(=O)[C@H](COC)NC(=O)CNC(=O)[C@H](CC1CCCCC1)NC(=O)[C@@H](NC(=O)[C@H](CC(N)=O)NC(=O)[C@H](CCC(=O)O)NC(=O)[C@@H](Cc1ccc(O)cc1)NC(C)=O)[C@@H](C)O)C(=O)N[C@@H](Cc1c[nH]c2ccccc12)C(N)=O [Compound No. 923] (Ac-[dY]ENT[Cha]GS(Me)[Arg(Me)]W-NH2)	0.5
CNC(=N)NCCC[C@H](NC(=O)[C@H](CC(C)C)SCCNC(=O)[C@H](CC1CCCCC1)NC(=O)[C@@H](NC(=O)[C@H](CC(N)=O)NC(=O)[C@@H]1C[C@@H](O)CN1C(=O)[C@@H](Cc1ccc(O)cc1)NC(C)=O)[C@@H](C)O)C(=O)N[C@@H](Cc1c[nH]c2ccccc12)C(N)=O [Compound No. 931] (Ac-[dY][Hyp]NT[Cha][Glyψ(CH2S)Leu][Arg(Me)]W-NH2)	1.7
CNC(=N)NCCC[C@H](NC(=O)[C@H](CC1CC1)NC(=O)CNC(=O)[C@H](CC1CCCCC1)NC(=O)[C@@H](NC(=O)[C@H](CC(N)=O)NC(=O)[C@H](CC(=O)O)NC(=O)[C@@H](Cc1ccc(O)cc1)NC(C)=O)[C@@H](C)O)C(=O)N[C@@H](Cc1c[nH]c2ccccc12)C(N)=O [Compound No. 909] (Ac-[dY]DNT[Cha]G[Ala(cPr)][Arg(Me)]W-NH2)	2.5
CCC[C@H](NC(=O)CNC(=O)[C@H](CC1CCCCC1)NC(=O)[C@@H](NC(=O)[C@H](CC(N)=O)NC(=O)[C@H](CCC(=O)O)NC(=O)[C@@H](Cc1ccc(O)cc1)NC(C)=O)[C@@H](C)O)C(=O)N[C@@H](CCCNC(=N)NC)C(=O)N[C@@H](Cc1c[nH]c2ccccc12)C(N)=O [Compound No. 924] (Ac-[dY]ENT[Cha]G[Nva][Arg(Me)]W-NH2)	0.4
CNC(=N)NCCC[C@H](NC(=O)[C@H](CC(C)C)NC(=O)CCC[C@H](Cc1ccccc1)NC(=O)[C@@H](NC(=O)[C@H](CC(N)=O)NC(=O)[C@@H]1C[C@@H](O)CN1C(=O)[C@@H](Cc1ccc(O)cc1)NC(C)=O)[C@@H](C)O)C(=O)N[C@@H](Cc1c[nH]c2ccccc12)C(N)=O [Compound No. 850] (Ac-[dY][Hyp]NT[X9]L[Arg(Me)]W-NH2)	1.3

What does the data say about its Specific Activity? Entry: CNC(=N)NCCC[C@H](NC(=O)[C@H](COC)NC(=O)CNC(=O)[C@H](Cc1ccccc1)NC(=O)[C@@H](NC(=O)[C@H](CC(N)=O)NC(=O)[C@@H]1C[C@@H](O)CN1C(=O)[C@@H](Cc1ccc(O)cc1)NC(C)=O)[C@@H](C)O)C(=O)N[C@@H](Cc1c[nH]c2ccccc12)C(N)=O [Compound No. 917] (Ac-[dY][Hyp]NTFGS(Me)[Arg(Me)]W-NH2)
0.8

Now consider CNC(=N)NCCC[C@H](NC(=O)[C@H](CC(C)(C)C)NC(=O)CNC(=O)[C@H](CC1CCCCC1)NC(=O)[C@@H](NC(=O)[C@H](CC(N)=O)NC(=O)[C@@H]1C[C@@H](O)CN1C(=O)[C@@H](Cc1ccc(O)cc1)NC(C)=O)[C@@H](C)O)C(=O)N[C@@H](Cc1c[nH]c2ccccc12)C(N)=O [Compound No. 933] (Ac-[dY][Hyp]NT[Cha]G[tBuAla][Arg(Me)]W-NH2) .
1.4

Try CNC(=N)NCCC[C@H](NC(=O)[C@H](CC(C)C)NC(=O)CC[C@H](O)[C@H](Cc1ccccc1)NC(=O)[C@@H](NC(=O)[C@H](CC(N)=O)NC(=O)[C@@H]1C[C@@H](O)CN1C(=O)[C@@H](Cc1ccc(O)cc1)NC(C)=O)[C@@H](C)O)C(=O)N[C@@H](Cc1c[nH]c2ccccc12)C(N)=O [Compound No. 857] (Ac-[dY][Hyp]NT[Hexanoyl(5S-NH,4S-OH,6-Ph)]L[Arg(Me)]W-NH2) next.
1.2

Then CNC(=N)NCCC[C@H](NC(=O)[C@H](CC(C)C)NC(=O)CNC(=O)[C@H](Cc1cccnc1)NC(=O)[C@@H](NC(=O)[C@H](CC(N)=O)NC(=O)[C@@H]1C[C@@H](O)CN1C(=O)[C@@H](Cc1ccc(O)cc1)NC(C)=O)[C@@H](C)O)C(=O)N[C@@H](Cc1c[nH]c2ccccc12)C(N)=O [Compound No. 848] (Ac-[dY][Hyp]NT[3Pal]GL[Arg(Me)]W-NH2) ?
0.9

CC(=O)N[C@H](Cc1ccc(O)cc1)C(=O)N1C[C@H](O)C[C@H]1C(=O)N[C@@H](CNC(N)=O)C(=O)N[C@H](C(=O)N[C@@H](CC1CCCCC1)C(=O)NCCC[C@@H](CC(C)C)C(=O)N[C@@H](CCCNC(=N)N)C(=O)N[C@@H](Cc1c[nH]c2ccccc12)C(N)=O)[C@@H](C)O [Compound No. 952] (Ac-[dY][Hyp][Dap(CONH2)]T[Cha][X1]RW-NH2) , same question.
1.3
